- Test system: SK-MEL-5 melanoma
- protocol: NCI-60 one-dose screen, 48 h
- assay_context: 10 µM unless noted
- Procedure: Growth inhibition of the SK-MEL-5 human tumor cell line is measured as a screen for anti-cancer activity. Cells are grown in 96 well plates and exposed to the test compound for 48 hours. Compounds are tested at a single concentration, which is 10^-5 M for most compounds. The reported endpoint is percent growth (GI% or GIPRCNT), where numbers from 0 - 100% represent growth inhibition, and numbers from -100% - 0 represent cell death. For example, a value of 40 represents 60% growth inhibition. […]
This is part of a sample that, as a whole, favours compounds with a hit. Of some 83,000 tested, about 20% had one in any assay. Activity calls are given as the source filed them. The calls were made as follows: active = growth percent below 10; inactive = the rest.
In this exercise, the only acceptable responses are yes (active), no (inactive)

So what was the verdict on COc1ccc(-c2ccc(-c3ccc(C(=N)N)cc3)s2)cc1Cl in this test?
no

So what was the verdict on COc1ccc(C2=C(Br)C(=O)c3nc(C)ccc3C2=O)cc1 in this test?
no

So what was the verdict on COc1ccc(C(=O)c2cc3c(N)c(C(=O)Nc4ccc(C)cc4)sc3nc2C)cc1 in this test?
yes

So what was the verdict on C=C(CBr)[C@@H]1CC[C@]2(C(=O)O)CC[C@]3(C)[C@H](CC[C@@H]4[C@@]5(C)CCC(=O)C(C)(C)[C@@H]5CC[C@]43C)[C@@H]12 in this test?
no

So what was the verdict on CCSc1oc(-c2ccccc2)nc1[P+](c1ccccc1)(c1ccccc1)c1ccccc1 in this test?
yes

So what was the verdict on Oc1c(Br)cc(Br)c2ccc(Cn3cc(-c4ccc(C(F)(F)F)cc4)nn3)nc12 in this test?
no

So what was the verdict on COc1ccc(Nc2ncc(Br)c(NCCCNC(=O)C3CCCC3)n2)cc1 in this test?
no

So what was the verdict on CCOC(=O)C1=C(c2ccccc2)N=C2SC=C(c3ccc(Cl)cc3)N2C1c1ccc(Br)cc1 (centres undefined) in this test?
no

So what was the verdict on CC(=O)n1nc(C(=O)OC(C)(C)c2ccccc2)c2ccccc21 in this test?
no

* * *

- System: HOP-92 NSCLC
- protocol: NCI-60 one-dose screen, 48 h
- assay_context: 10 µM unless noted
About 83,000 compounds went through this panel and 20% of them were active in at least one assay; those are over-represented in the sample as a whole. Calls of active or inactive are those of the source. The calls were made as follows: active = growth percent below 10; inactive = the rest.
In this exercise, the only acceptable responses are class 1 (active), class 0 (inactive)

So what was the verdict on CC/C=C\C[C@H](O)C/C=C1/C(=O)C=C[C@@H]1C/C=C\CCCC(=O)N(C)C in this test?
class 1

So what was the verdict on Nc1c(C(=O)Nc2ccccc2F)sc2nc3c(cc12)CCCC3 in this test?
class 0

So what was the verdict on CC(=O)N1N=C(c2ccc(C(F)(F)F)c(F)c2)CC1c1[nH]c(C)c(C(=O)NCC(F)(F)F)c1C (stereo unspecified) in this test?
class 0

So what was the verdict on CCN1CCN(C(=O)[C@]23CCC(C)(C)C[C@@H]2C2=CC[C@@H]4[C@@]5(C)CCC(=O)C(C)(C)[C@@H]5CC[C@@]4(C)[C@]2(C)CC3)CC1 in this test?
class 0

So what was the verdict on O=C1Nc2ccccc2/C1=C/c1nc2ccccc2c(=O)[nH]1 in this test?
class 0

So what was the verdict on COCCn1cc(-c2nc(-c3cc4cccnc4[nH]3)cs2)c2cc(OC)ccc21 in this test?
class 1

So what was the verdict on O=C1c2c(c3c4ccccc4[nH]c3c3ccc4ccccc4c23)C(=O)N1CCN1CCOCC1 in this test?
class 0

So what was the verdict on N#CC1=C(N)Oc2c(ccc3ccccc23)C1c1ccccc1 (stereo unspecified) in this test?
class 0

So what was the verdict on COc1ccc(C2=C(Br)C(=O)c3nc(C)ccc3C2=O)cc1 in this test?
class 0

So what was the verdict on CCOC(=O)C(=O)C(C(=O)OCC)c1ccccc1 (stereo unspecified) in this test?
class 0

So what was the verdict on O=c1[nH]c(-c2ccccc2)nc2sc3cc(O)ccc3c12 in this test?
class 0

So what was the verdict on COC(=O)[C@]12CCC(C)(C)C[C@H]1[C@H]1/C(=N/OCCc3nn[nH]n3)C[C@@H]3[C@@]4(C)CC[C@H](OC(C)=O)C(C)(C)[C@@H]4CC[C@@]3(C)[C@]1(C)CC2 in this test?
class 0

So what was the verdict on Cn1c(=O)c2nc(/C=C/c3ccccc3)c(=O)[nH]c2n(C)c1=S in this test?
class 0

So what was the verdict on C#CCOc1ccc2ncnc(Nc3ccc(NC(=O)C=C)cc3)c2c1 in this test?
class 1

So what was the verdict on O=C1/C(=C/c2ccccc2O)CC/C1=C\c1ccccc1O in this test?
class 0

So what was the verdict on CCC(C)N(CCNc1cc(OC)cc2cccnc12)CC(C)C (stereo unspecified) in this test?
class 0

So what was the verdict on Cc1sc2nc(NCCc3c[nH]c4ccc(Cl)cc34)[nH]c(=O)c2c1C in this test?
class 0

So what was the verdict on CN(C)CCNC(=O)c1ccc(-c2nc3ccc4[nH]ncc4c3c3c2C2CCC3C2)cc1 (stereo unspecified) in this test?
class 0

So what was the verdict on C=C1C(=O)O[C@H]2[C@H]1CC/C(COC(=O)c1cc3ccccc3s1)=C\CC[C@@]1(C)O[C@@H]21 in this test?
class 1

So what was the verdict on COc1ccc(Nc2nnc(-c3ccc(OC)c(OC)c3)o2)cc1 in this test?
class 0

So what was the verdict on COc1ccc(OC)c(/C=N/Nc2ncnc3c2c(C)nn3C)c1 in this test?
class 0
